- MEASURED TARGET: Kallikrein-5 (Homo sapiens) (UniProt Q9Y337)
- Sequence (Q9Y337 67-293 limits assumed): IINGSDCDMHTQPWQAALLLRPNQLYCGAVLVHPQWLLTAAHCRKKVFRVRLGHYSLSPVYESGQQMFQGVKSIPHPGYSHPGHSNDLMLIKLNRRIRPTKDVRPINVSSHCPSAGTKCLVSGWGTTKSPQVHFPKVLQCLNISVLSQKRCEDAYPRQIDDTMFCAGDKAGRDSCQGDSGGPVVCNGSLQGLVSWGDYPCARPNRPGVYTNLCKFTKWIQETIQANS
- PROTOCOL NOTES: inhibition of kallikrein 5 (hK5) activity – biochemical, 1536-well, primary screen (AID 873);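 note: 0% = enzyme controls without compound and 100% = no-enzyme blanks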
- CONDITION SET: recombinant hK5, fluorogenic AMC substrate cleavage; at 5 µM
The campaign covered roughly 210,000 compounds. About 1,300 (0.62%) were called active.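 Rule for the calls: active = inhibition of 40% or more; inactive = the rest.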 The full list was thinned out, with actives kept by preference.
Your answer must be one of the following: YES = active, NO = inactive

In: Hi, sorry to bother you, what did the test record for `O=C(CN1CCN(C/C=C/c2ccccc2)CC1)Nc1ccc(F)cc1F` ?
Out: NO

In: Hi, sorry to bother you, what did the test record for `COc1cccc2c(O)cc(=O)n(C)c12` ?
Out: NO

In: Hi, sorry to bother you, what did the test record for `O=C(CSc1nnc(-c2cccnc2)n1Cc1ccco1)c1ccc(Cl)cc1` ?
Out: NO

In: Hi, sorry to bother you, what did the test record for `COc1cc(C(=O)N2CCN(C/C=C/c3ccccc3)CC2)cc(OC)c1C` ?
Out: YES

In: Hi, sorry to bother you, what did the test record for `O=C(Nc1ccc(Cl)cc1)Nc1ccc(Oc2cccnc2)nc1` ?
Out: YES

In: Hi, sorry to bother you, what did the test record for `CC(C)=C(NC(=O)c1ccccc1)C(=O)N/N=C(\C)c1ccccc1O` ?
Out: YES

In: Hi, sorry to bother you, what did the test record for `COc1cccc2c(C)c(C(=O)O)[nH]c12` ?
Out: YES

In: Hi, sorry to bother you, what did the test record for `O=S(=O)(c1ccc(NC(=S)NN=C(C2CC2)C2CC2)cc1)N1CCOCC1` ?
Out: NO

In: Hi, sorry to bother you, what did the test record for CNC(=O)NC(=O)C(C)N1CCN(C/C=C/c2ccccc2)CC1 (stereo unspecified) ?
Out: NO

In: Hi, sorry to bother you, what did the test record for `Cc1c(C(=O)N/N=C/c2ccccc2)[nH]c2c([N+](=O)[O-])cccc12` ?
Out: NO

In: Hi, sorry to bother you, what did the test record for `O=C(NNC(=O)c1csc(-c2cccnc2)n1)Nc1ccc(Cl)cc1` ?
Out: NO

* * *

Can you tell me inhibition for the items I'm about to list?
- MEASURED TARGET: Kallikrein-5 (Homo sapiens) (UniProt Q9Y337)
- PROTOCOL NOTES: inhibition of kallikrein 5 (hK5) activity – biochemical, 1536-well, primary screen (AID 873);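 note: 0% = enzyme controls without compound and 100% = no-enzyme blanks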
- CONDITION SET: recombinant hK5, fluorogenic AMC substrate cleavage; at 5 µM; active compounds read high
About 1,300 (0.62%) of roughly 210,000 compounds were called active. The sample as a whole holds a higher share of actives than the screen did.
Hi! Could you send only the number? It should be in %, unit omitted.

In: Recorded inhibition of `COCCNc1nc(-c2ccccc2)nc2c1oc1ccccc12` , please.
Out: 1.99

In: Recorded inhibition of `CC(C)c1nc(SCC(=O)NC(=O)NC(C)(C)C)n[nH]1` , please.
Out: -0.71

In: Recorded inhibition of `CC(=O)c1ccc(S(=O)(=O)N2CCN(C(=O)/C=C/c3ccc4ccccc4n3)CC2)cc1` , please.
Out: -6.25

In: Recorded inhibition of `O=c1[nH]c2cccnc2n1-c1ccc([N+](=O)[O-])cc1` , please.
Out: 0.04

In: Recorded inhibition of `Cc1cc(=O)[nH]c(SCC(=O)Nc2ccc(Br)cc2)n1` , please.
Out: 2.46

In: Recorded inhibition of `COc1ccccc1N1CCN(CCCCOc2ccc(F)cc2)CC1` , please.
Out: 40.1

In: Recorded inhibition of CC1CC(C)(C)n2c(O)c(N=NC(N)=S)c3cccc1c32 (stereo not drawn) , please.
Out: 50.7

In: Recorded inhibition of C=CCn1c(SCCOc2ccc(OC)cc2)nnc1C(NC(=O)c1ccc(OC)cc1)C(C)C (stereo not drawn) , please.
Out: 2.79

In: Recorded inhibition of `CCc1nc2sc(C(=O)O)c(N)c2c2c1CCCC2` , please.
Out: -8.59

In: Recorded inhibition of `O=C(NNc1cc(Cl)cc(Cl)c1)c1c(F)cccc1Cl` , please.
Out: 1.1

In: Recorded inhibition of `COc1ccccc1N1CCN(Cc2ccc(OC)c3ccccc23)CC1` , please.
Out: -4.66

In: Recorded inhibition of `C=CCNc1cnn(-c2ccc(C)cc2)c(=O)c1Cl` , please.
Out: 58

In: Recorded inhibition of `N#C/C(=C/c1ccc(-c2ccccc2[N+](=O)[O-])o1)C(=O)NCCN1CCCCC1` , please.
Out: 1.64

In: Recorded inhibition of `Cc1ccc2c(N)c(C(=O)c3ccccc3)sc2n1` , please.
Out: 17.9

In: Recorded inhibition of `C=CCn1c(CNC(=O)c2ccco2)nnc1SCC(=O)c1ccc(OC)cc1` , please.
Out: 1.62

In: Recorded inhibition of `Cc1ccc(Oc2cnn(-c3ccccc3)c(=O)c2Br)cc1` , please.
Out: -20.9

In: Recorded inhibition of `Cc1ccccc1Cn1c2ccccc2c2cnn(CC(=O)NCc3ccco3)c(=O)c21` , please.
Out: 1.05

In: Recorded inhibition of `O=C(CNc1ccc(F)cc1F)NC(=O)NCc1ccco1` , please.
Out: -1.58

Attribution: PubChem BioAssay AID873
